tested on: Human immunodeficiency virus 1; experiment: Anti-HIV activity against multidrug resistant HIV JSL strain by inhibition of HIV p24 antigen expression in peripheral blood mononuclear cells(PBMC); assay type: functional, organism-based
pIC50: −log10 of the molar value.
The label depends only on pIC50: met if it is at least 7, not met if it is smaller.

{"molecule": "CC(C)CN(C[C@@H](O)[C@H](Cc1ccccc1)NC(=O)[C@@H](C[S+]([O-])c1ccc2ccccc2c1)NS(C)(=O)=O)S(=O)(=O)c1ccc(N)cc1 (stereo not given in full)", "system_tested": "Human immunodeficiency virus 1", "label": "met"}
{"molecule": "CC(C)(C)NC(=O)[C@@H]1C[C@@H]2CCCC[C@@H]2CN1C[C@@H](O)[C@H](Cc1ccccc1)NC(=O)[C@@H](C[S+]([O-])c1ccc2ccccc2c1)NS(C)(=O)=O (stereo not given in full)", "system_tested": "Human immunodeficiency virus 1", "label": "not met"}
{"molecule": "CC(C)CN(C[C@@H](O)[C@H](Cc1ccccc1)NC(=O)O[C@H]1CCOC1)S(=O)(=O)c1ccc(N)cc1", "system_tested": "Human immunodeficiency virus 1", "label": "not met"}
{"molecule": "CC(C)CN(C[C@@H](O)[C@@H](/C=C/[C@@H](C[S+]([O-])c1ccc2ccccc2c1)NS(C)(=O)=O)Cc1ccccc1)S(=O)(=O)c1ccc(N)cc1 (stereo not given in full)", "system_tested": "Human immunodeficiency virus 1", "label": "not met"}
